System: A498
protocol_description: NCI tumour cell line growth inhibition, 48 h
The source made the active and inactive calls. Rule as the data show it: active = GI50 up to about 1.1 µM and inactive = higher.
Overview of recorded GI50 for various compounds
reported_endpoint: GI50

[
  {
    "compound": "CN(C)CCCc1c[nH]c2ccccc12",
    "reported_endpoint": "GI50",
    "measured_result": "> 100 µM (inactive)"
  },
  {
    "compound": "O=C(c1ccccc1)c1ccc(N2C(=O)/C(=C/c3cccc(Oc4ccccc4)c3)N=C2c2ccccc2)c(N2C(=O)/C(=C/c3cccc(Oc4ccccc4)c3)N=C2c2ccccc2)c1",
    "reported_endpoint": "GI50",
    "measured_result": "33.1 µM (inactive)"
  },
  {
    "compound": "c1ccc(CNc2ncnc3nn[nH]c23)cc1",
    "reported_endpoint": "GI50",
    "measured_result": "34 µM (inactive)"
  },
  {
    "compound": "Cn1c2ccccc2c2ccc3c(c21)C(=O)c1ccccc1C3=O",
    "reported_endpoint": "GI50",
    "measured_result": "> 10 µM (inactive)"
  },
  {
    "compound": "CCCCCCCCCCCCCCCCCCOCC1(COP(=O)([O-])OCC[N+](C)(C)C)CCCO1 (stereo not given)",
    "reported_endpoint": "GI50",
    "measured_result": "3.46 µM (inactive)"
  },
  {
    "compound": "O=C1N=C(S)NNC12c1ccccc1-c1ccccc12",
    "reported_endpoint": "GI50",
    "measured_result": "3.31 µM (inactive)"
  },
  {
    "compound": "O=C(NNC(=S)Nc1ccccc1)C12CC3CC(CC(C3)C1)C2",
    "reported_endpoint": "GI50",
    "measured_result": "21.1 µM (inactive)"
  },
  {
    "compound": "CCc1nc(N)nc(N)c1-c1ccc(Cl)c(N=[N+]=[N-])c1",
    "reported_endpoint": "GI50",
    "measured_result": "16.5 µM (inactive)"
  },
  {
    "compound": "COc1cc(Br)c(/C=N\\c2cccc3ccc(OS(=O)(=O)c4cccc([N+](=O)[O-])c4)cc23)cc1OC",
    "reported_endpoint": "GI50",
    "measured_result": "66.5 µM (inactive)"
  },
  {
    "compound": "COc1cccc(N2N=C3c4ccccc4-n4c(nc5ccccc54)C3C2N)c1 (stereo not given)",
    "reported_endpoint": "GI50",
    "measured_result": "> 100 µM (inactive)"
  }
]

====

Tested on: Hs-578T
protocol_description: NCI tumour cell line growth inhibition, 48 h
The source made the active and inactive calls. Cut-off read from the data, not from the text of the source: active = GI50 up to about 1.1 µM and inactive = higher. Where a SMILES comes first, the peptide text is derived from it. [ ]: non-standard residue; d: D form. The star is where a group is joined. ξ: configuration not given here. ξNMe2Val = CC(C)C(C(=O)*)N(C)C; NMeV = CN[CH](C(=O)O)C(C)C; NHBn = c1ccc(CN*)cc1
Classes used: yes (active), no (inactive)

[
  {
    "molecule": "C[n+]1c(-c2ccc(/C=N/NC(=N)N/N=C/c3ccc(-c4cn5cc(Cl)ccc5[n+]4C)cc3)cc2)cn2cc(Cl)ccc21",
    "class": "no"
  },
  {
    "molecule": "CCOP(=O)(OCC)/C(C#N)=C/c1ncc[nH]1",
    "class": "no"
  },
  {
    "molecule": "NC(=S)c1cccc(C2Nc3ccccc3O2)c1 (centres undefined)",
    "class": "no"
  },
  {
    "molecule": "COC(=O)[C@H](Cc1ccccc1)NC(=O)N(CCNC(=O)OC(C)(C)C)c1ccccc1",
    "class": "no"
  },
  {
    "molecule": "CNC(=O)Nc1ccccc1",
    "class": "no"
  },
  {
    "molecule": "CC(C)C(NC(=O)C(C(C)C)N(C)C)C(=O)N(C)C(C(=O)N1CCCC1C(=O)N1CCCC1C(=O)NCc1ccccc1)C(C)C (centres undefined) (ξNMe2Val-V[NMeV]PP-NHBn; configuration not given here)",
    "class": "yes"
  },
  {
    "molecule": "COc1cc(Br)c(CC2C3=C(CCN2C(=O)C2CCC2)CC2(CC3)OCCO2)cc1O (centres undefined)",
    "class": "no"
  },
  {
    "molecule": "Clc1ncnc2c1nc(C#Cc1ccccc1)n2C1CCCCO1 (centres undefined)",
    "class": "no"
  },
  {
    "molecule": "CC(=O)NNc1nc(C)c(C(/C=C/c2ccc([N+](=O)[O-])cc2)=N/N)s1",
    "class": "no"
  }
]

====

System: LOX IMVI
protocol_description: NCI tumour cell line growth inhibition, 48 h
Active and inactive are the calls of the source. Cut-off read from the data, not from the text of the source: active = GI50 up to about 1.1 µM and inactive = higher.
Outcome codes: active, inactive

[
  {
    "compound": "O=S(=O)(O)c1ccc2c(/N=N/c3cccc4ccccc34)c(O)ccc2c1",
    "class": "inactive"
  },
  {
    "compound": "COC(=O)C(=Cc1cc(OC)ccc1OC)C(=O)OC",
    "class": "inactive"
  },
  {
    "compound": "CCC(=O)Nc1ccc(/N=N/N(C)C)cc1",
    "class": "inactive"
  },
  {
    "compound": "O=C(OC1CC(n2cc(F)c(=O)[nH]c2=O)OC1CSC(=O)c1ccccc1)c1ccccc1 (configuration not stated)",
    "class": "inactive"
  },
  {
    "compound": "O=c1cc(-c2ccccc2)[nH]c2ccc(N3CCOCC3)cc12",
    "class": "active"
  },
  {
    "compound": "COC(=O)[C@]1(C)CCC[C@@]2(C)C1CCC1=C[C@@]3(C(C)C)CC[C@]12OO3 (some centres not stated)",
    "class": "inactive"
  },
  {
    "compound": "C/C(=N\\O)c1ccc(Nc2nc3ccccc3c3occc23)cc1",
    "class": "inactive"
  },
  {
    "compound": "CC(=O)c1c2c(cc3c1CC1(Cc4cc5c(cc4C1)C(=O)CCC5)C3)CCCC2 (configuration not stated)",
    "class": "inactive"
  },
  {
    "compound": "c1ccc2c(C3NCCc4nc[nH]c43)cccc2c1 (configuration not stated)",
    "class": "inactive"
  },
  {
    "compound": "Cc1cc(S(=O)(=O)Nc2nnc3cc(C(F)(F)F)cc(C)n23)c(S)cc1Cl",
    "class": "inactive"
  },
  {
    "compound": "N#Cc1nc(-c2cc([N+](=O)[O-])cc([N+](=O)[O-])c2)oc1N",
    "class": "inactive"
  },
  {
    "compound": "CCOC(=O)NN(C(=O)OCC)c1ccc(/N=N/c2ccc(OC)cc2)n1C",
    "class": "inactive"
  },
  {
    "compound": "CCOC(=O)Nc1sc2c(c1C#N)CC(C)CC2 (configuration not stated)",
    "class": "inactive"
  },
  {
    "compound": "C/C(=N\\[N+](C)(C)C)c1ccc(C)c(C)c1",
    "class": "inactive"
  },
  {
    "compound": "CC(C)(C)C1=CC(=NNC(=S)NCc2ccccc2)C=C(C(C)(C)C)C1=O",
    "class": "inactive"
  },
  {
    "compound": "C[C@]12Cc3cn[nH]c3C(=O)C1CC[C@@H]1C2CC[C@@]2(C)C1CC[C@@H]2O (some centres not stated)",
    "class": "inactive"
  },
  {
    "compound": "CCN(CC)CCCN(c1cc(OC)cc2nccnc12)S(=O)(=O)c1ccc(C)cc1",
    "class": "inactive"
  }
]

====

// reported GI50 per item
Tested on: IGROV-1
protocol_description: NCI tumour cell line growth inhibition, 48 h
The source made the active and inactive calls. Rule as the data show it: active = GI50 up to about 1.1 µM and inactive = higher.
reported_endpoint: GI50

[
  {
    "compound": "CCOP(=O)(OCC)/C(C#N)=C/c1ncc[nH]1",
    "measured_result": "> 10 µM (inactive)"
  },
  {
    "compound": "COC(=O)[C@@]12C3=NO[C@]1(C(=O)OC)C(O[Si](C)(C)C(C)(C)C)[C@@H](OC(C)=O)[C@@H](OC(C)=O)[C@@H]2[C@@H](OCc1ccccc1)CC3 (stereo partly drawn)",
    "measured_result": "> 29 µM (inactive)"
  },
  {
    "compound": "Cc1cc(S(=O)(=O)Nc2nnc3cc(C(F)(F)F)cc(C)n23)c(S)cc1Cl",
    "measured_result": "> 100 µM (inactive)"
  }
]

====

Tested on: A498
protocol_description: NCI tumour cell line growth inhibition, 48 h
Calls of active or inactive are those of the source. Rule as the data show it: active = GI50 up to about 1.1 µM and inactive = higher.
Labels: true (1) (active), false (0) (inactive)

[
  {
    "molecule": "CCCCC/N=C/c1c(O)c(O)c(C(C)C)c2cc(C)c(-c3c(C)cc4c(C(C)C)c(O)c(O)c(/C=N/CCCCC)c4c3O)c(O)c12",
    "class": "false (0)"
  },
  {
    "molecule": "CC1(C)C2CCC(CN)(C2)C1O (stereo not drawn)",
    "class": "false (0)"
  },
  {
    "molecule": "COC(=O)C(C(=O)C(=O)Nc1ccc(Br)cc1)c1nc2ccc(Cl)cc2nc1O (stereo not drawn)",
    "class": "false (0)"
  },
  {
    "molecule": "COC1(OC)CCC2C1C1CCC(OC)(OC)C21 (stereo not drawn)",
    "class": "false (0)"
  },
  {
    "molecule": "COc1cccc(OCC(=N/NC(=O)c2ccncc2)/N=C/c2ccncc2)c1",
    "class": "false (0)"
  },
  {
    "molecule": "Nc1c(-c2ccc(Cl)c(Cl)c2)c2ccc([N+](=O)[O-])cc2c(=O)n1-c1nc2ccccc2s1",
    "class": "true (1)"
  },
  {
    "molecule": "C[C@@H]1O[C@@H](O[C@H]2CC[C@]3(C=O)[C@H]4CC[C@]5(C)[C@@H](C6=CC(=O)OC6)CC[C@]5(O)[C@@H]4CC[C@]3(O)C2)[C@H](O)[C@H](O)[C@H]1O",
    "class": "true (1)"
  },
  {
    "molecule": "CCN(CC)CCCN(c1cc(OC)cc2nccnc12)S(=O)(=O)c1ccc(C)cc1",
    "class": "false (0)"
  }
]
